# measurement-target: T1, human TREM2 expressed on cells (human, UniProt Q9NZC2 19-230)
# T1 construct: BW5147.G.1.4 cells stably expressing human TREM2 together with Dap12, or endogenous TREM2 of primary human myeloid cells; also called huT2 BW; hTREM2 expressing cell line
# T1 sequence: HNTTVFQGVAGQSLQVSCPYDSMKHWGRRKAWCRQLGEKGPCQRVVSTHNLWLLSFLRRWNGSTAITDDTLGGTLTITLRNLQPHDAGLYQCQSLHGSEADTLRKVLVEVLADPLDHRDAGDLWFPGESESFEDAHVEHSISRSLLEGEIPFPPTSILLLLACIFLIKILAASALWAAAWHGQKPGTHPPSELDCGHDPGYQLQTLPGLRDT
# method: FACS, hTREM2 BW cells
property-measured: Kd (nM)
One number for each entry, in nM.

Record Kd for all entries; do not skip any.
1. AL2p-5 (antibody, V domains shown, AL2p-h50 variant; Fab and IgG formats under one id; also called AL2-5) VH: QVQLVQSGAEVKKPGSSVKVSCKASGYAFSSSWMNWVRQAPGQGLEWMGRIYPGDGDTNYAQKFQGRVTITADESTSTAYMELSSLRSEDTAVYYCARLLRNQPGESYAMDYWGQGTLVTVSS VL: DVVMTQTPLSLSVTPGQPASISCRSSQSLVHSNRYTYLHWYLQKPGQSPQLLIYKVSNRFSGVPDRFSGSGSGTDFTLKISRVEAEDVGVYYCSQSTRVPYTFGQGTKLEIK
2. AL2p-59 (antibody, V domains shown, Fab and IgG formats under one id) VH: QVQLVQSGAEVKKPGSSVKVSCKASGYAFSSHWMNWVRQAPGQGLEWMGRIYPGEGQTNYAQKRQGRVTITADESTSTAYMELSSLRSEDTAVYYCARLLRNQPGESYAMDYWGQGTLVTVSS VL: GVVMTQTPLSLSVTPGQPASISCRTSQSLVHSNQYTYLHWYLQKPGQSPQLLIYKVSNRVSGVPDRFSGSGSGTDFTLKISRVEAEDVGVYYCSQSTRVPYTFGQGTKLEIK
3. AL2p-60 (antibody, IgG1, V domains shown) VH: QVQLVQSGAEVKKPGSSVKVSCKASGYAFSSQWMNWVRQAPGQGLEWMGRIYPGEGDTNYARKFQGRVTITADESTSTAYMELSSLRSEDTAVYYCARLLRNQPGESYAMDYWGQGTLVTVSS VL: GVVMTQTPLSLSVTPGQPASISCRSSQSLVHSNQYTYLHWYLQKPGQSPQLLIYKVSNRRSGVPDRFSGSGSGTDFTLKISRVEAEDVGVYYCSQSTRVPYTFGQGTKLEIK
4. AL2p-31 (antibody, V domains shown, Fab and IgG formats under one id) VH: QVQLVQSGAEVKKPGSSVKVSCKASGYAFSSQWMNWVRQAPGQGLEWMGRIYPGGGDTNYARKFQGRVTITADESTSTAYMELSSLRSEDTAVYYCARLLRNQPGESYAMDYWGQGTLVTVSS VL: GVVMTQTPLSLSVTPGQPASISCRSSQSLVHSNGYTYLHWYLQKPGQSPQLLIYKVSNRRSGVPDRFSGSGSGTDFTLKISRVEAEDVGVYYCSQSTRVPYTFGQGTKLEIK
5. AL2p-3 (antibody, V domains shown, AL2p-h50 variant; Fab and IgG formats under one id) VH: QVQLVQSGAEVKKPGSSVKVSCKASGYAFSSSWMNWVRQAPGQGLEWMGRIYPGEGDTNYAQKFQGRVTITADESTSTAYMELSSLRSEDTAVYYCARLLRNQPGESYAMDYWGQGTLVTVSS VL: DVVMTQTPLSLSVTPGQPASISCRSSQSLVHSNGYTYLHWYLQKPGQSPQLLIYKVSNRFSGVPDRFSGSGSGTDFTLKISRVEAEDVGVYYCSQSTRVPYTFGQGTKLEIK

stdout:
2
1.24
1.12
1.23
2.3

Values compiled from patent US20200317776A1.
